target-or-system: acetylcholine esterase (AChE) (Homo sapiens)
Sequence (P22303 32-614): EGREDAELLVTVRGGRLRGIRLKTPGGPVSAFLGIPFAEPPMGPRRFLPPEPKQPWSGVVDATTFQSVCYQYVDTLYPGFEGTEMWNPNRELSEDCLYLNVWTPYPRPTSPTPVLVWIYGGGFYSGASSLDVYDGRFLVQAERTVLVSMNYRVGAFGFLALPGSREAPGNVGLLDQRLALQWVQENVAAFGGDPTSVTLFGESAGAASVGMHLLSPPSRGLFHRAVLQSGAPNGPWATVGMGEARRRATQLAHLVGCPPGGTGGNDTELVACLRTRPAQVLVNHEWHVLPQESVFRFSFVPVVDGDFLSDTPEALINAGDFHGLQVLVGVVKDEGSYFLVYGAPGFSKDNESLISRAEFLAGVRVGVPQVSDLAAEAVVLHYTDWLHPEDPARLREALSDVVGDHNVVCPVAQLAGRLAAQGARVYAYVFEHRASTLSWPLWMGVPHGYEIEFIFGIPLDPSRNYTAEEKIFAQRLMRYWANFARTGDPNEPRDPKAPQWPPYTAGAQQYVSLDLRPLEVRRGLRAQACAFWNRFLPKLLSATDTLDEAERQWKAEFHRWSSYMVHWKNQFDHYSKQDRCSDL
protocol-text: biochemical
settings: in vitro; mean ± S.E (n = 3); read-out: AChE IC50
attribute-measured: pIC50
Notebook: values listed as pIC50 are -log10 of the concentration (mol/L).

smiles-code	pIC50
NS(=O)(=O)c1ccc(-n2c(SCC(=O)NC3CCN(Cc4ccccc4)CC3)nc3ccc(I)cc3c2=O)cc1	7.62
CCOC(=O)c1ccccc1NC(=O)CSc1nc2ccc(I)cc2c(=O)n1-c1ccc(S(N)(=O)=O)cc1	7.22
CCOC(=O)c1cccc(NC(=O)CSc2nc3ccc(I)cc3c(=O)n2-c2ccc(S(N)(=O)=O)cc2)c1	7.13
CCOc1ccc2nc(NC(=O)CSc3nc4ccc(I)cc4c(=O)n3-c3ccc(S(N)(=O)=O)cc3)sc2c1	7.05
CN1C(=O)c2ccc(NC(=O)CSc3nc4ccc(I)cc4c(=O)n3-c3ccc(S(N)(=O)=O)cc3)cc2C1=O	7.11
Cn1c(NC(=O)CSc2nc3ccc(I)cc3c(=O)n2-c2ccc(S(N)(=O)=O)cc2)cc(=O)n(C)c1=O	7.06

Query: Hi! What's the reported pIC50 for "NS(=O)(=O)c1ccc(-n2c(SCC(=O)Nc3cnccn3)nc3ccc(I)cc3c2=O)cc1" on acetylcholine esterase (AChE) (Homo sapiens)?
Reply: 7.94

----------
Recorded measurements of IC50, one per entry
protocol-text: Free radical scavenging activity (DPPH) assay
settings: mean ± S.E (n = 3)
Write down the numeric answer in µM and omit the unit.

Some compounds with recorded IC50:
smiles-code	IC50 [µM]
CN1C(=O)c2ccc(NC(=O)CSc3nc4ccc(I)cc4c(=O)n3-c3ccc(S(N)(=O)=O)cc3)cc2C1=O	127
NS(=O)(=O)c1ccc(-n2c(SCC(=O)Nc3cnccn3)nc3ccc(I)cc3c2=O)cc1	95.5
NS(=O)(=O)c1ccc(-n2c(SCC(=O)Nc3nccs3)nc3ccc(I)cc3c2=O)cc1	143
CCOC(=O)c1ccccc1NC(=O)CSc1nc2ccc(I)cc2c(=O)n1-c1ccc(S(N)(=O)=O)cc1	122
NS(=O)(=O)c1ccc(-n2c(SCC(=O)NN3CCOCC3)nc3ccc(I)cc3c2=O)cc1	148

Query: Form field: reported IC50 of "Cn1c(NC(=O)CSc2nc3ccc(I)cc3c(=O)n2-c2ccc(S(N)(=O)=O)cc2)cc(=O)n(C)c1=O"
Reply: 137

Query: What does the record list as IC50 for "CCOC(=O)N1CCC(NC(=O)CSc2nc3ccc(I)cc3c(=O)n2-c2ccc(S(N)(=O)=O)cc2)CC1" ?
Reply: 155

----------
protocol-text: Acute toxicity study (LD50)
settings: mouse, in vivo, ip; albino male mice, i.p.; read-out: LD50 (median lethal dose)
attribute-measured: LD50 (mg/kg)
Please state the figure in mg/kg; there is no need to write the unit.

Query: For the molecule shown here, NS(=O)(=O)c1ccc(-n2c(SCC(=O)Nc3cnccn3)nc3ccc(I)cc3c2=O)cc1 [Compound 14] , give the reported LD50.
Reply: 300

----------
protocol-text: Free radical scavenging activity (DPPH) assay
settings: mean ± S.E (n = 3)
attribute-measured: IC50 (µM)
Could you give me the number in µM? Just the number is fine.

Completed entries (count: 3):
compound	attribute-measured	unit-text	endpoint-result
CCOc1ccc2nc(NC(=O)CSc3nc4ccc(I)cc4c(=O)n3-c3ccc(S(N)(=O)=O)cc3)sc2c1 [Compound 7]	IC50	µM	119
O=C1O[C@H]([C@@H](O)CO)C(O)=C1O [Ascorbic acid, ascorbic acid, reference compound]	IC50	µM	113
NS(=O)(=O)c1ccc(-n2c(SCC(=O)NC3CCN(Cc4ccccc4)CC3)nc3ccc(I)cc3c2=O)cc1 [Compound 11]	IC50	µM	109

With those in mind, consider the next compound.
Query: # input compound: NS(=O)(=O)c1ccc(-n2c(SCC(=O)Nc3nc4ccc([N+](=O)[O-])cc4s3)nc3ccc(I)cc3c2=O)cc1 [Compound 8] ; wanted: its IC50
Reply: 177

FYI, the data here is from paper PMC10511408.
